Test system: isolated microspores of Triticale (variety Sunray)
Assay: CPP delivery of GUS enzyme into isolated microspores, GUS staining
Type: cell-based
Conditions: GUS enzyme cargo:CPP 1:4, 1 hour at 37° C., three repeats
# key: entry, value: Average Transduction Efficiency
The reply should contain only the number, in %.

Solved cases (5 shown):
RRRRCTRRRTRSRRRPRR [CPP3]    57.63
RARRRSTARRRKRRTPTRSGR [CPP32]    1.26
RLRRLLLPLRRRRRLRQRRR [CPP25]    8.7
RRRRRRRRHEQRRRRRKRGRGR [CPP2]    18.7
RKKKGKRKEERER [CPP55]    0

State its Average Transduction Efficiency on isolated microspores of Triticale (variety Sunray): RAGVDGRGRRRRRRRR [CPP50] 1.31

Report Average Transduction Efficiency for RRHRQQKPTTTRRRRR [CPP65] tested on isolated microspores of Triticale (variety Sunray). 0

# value lookup — system isolated microspores of Triticale (variety Sunray), readout Average Transduction Efficiency, item RPLPLPLPLPRGPRRRRRRR [CPP30] 0

API: value(readout= Average Transduction Efficiency, system= isolated microspores of Triticale (variety Sunray), query= RKEKKRIKQRKAFIMAEKKKRK [CPP13] ) 0

Can you look up Average Transduction Efficiency on isolated microspores of Triticale (variety Sunray) for RRRRRRRRHLRR [CPP34] ? 47.13

Enter reported Average Transduction Efficiency observed with isolated microspores of Triticale (variety Sunray) for RRRGRRRRRRRRQRQQRRQEGNRRR [CPP5] 5.88

Give the reported Average Transduction Efficiency for RRRRWRHRCATKTAATTLRRRRRRRRGRR [CPP29] (system: isolated microspores of Triticale (variety Sunray)). 22.25

====

Test system: isolated microspores of Triticale (variety Sunray)
Assay: CPP delivery of GUS enzyme into isolated microspores, GUS staining
Type: cell-based
Settings: GUS enzyme cargo:CPP 1:4, 1 hour at 37° C., three repeats
Catalogue of Average Transduction Efficiency values
Please respond with the number in % and leave the unit unwritten.

Fill in the blank: the reported Average Transduction Efficiency of RRRRARGKRCWLRRRRRR [CPP49] is ____. 11.89

Request the reported Average Transduction Efficiency associated with RKRKEENTGRRRRRRRERKRR [CPP22] 1.94

So what does the record say about Average Transduction Efficiency for MALERPWKRRRRRRR [CPP47] ? 0

Entry under review: RRSKRDVRGRQRRRRRRRLFPRR [CPP1] . Reported Average Transduction Efficiency? 21.07

Which Average Transduction Efficiency is listed for RRKNDKPKTGGEKKSTKDAPESSKKKNRK [CPP61] ? 0

Suppose we examine the sequence RKRKRGKGIGSGRGRGRGRASGSEKGRGSGKGKAK [CPP44] ; what Average Transduction Efficiency value has been reported? 11.27

For the sequence RRWRRRRSRRRRRRRRR [CPP18] , what Average Transduction Efficiency is on record? 0

====

Test system: isolated microspores of Triticale (variety Sunray)
Assay: CPP delivery of GUS enzyme into isolated microspores, GUS staining
Format: cell-based
Settings: GUS enzyme cargo:CPP 1:4, 1 hour at 37° C., three repeats
Rule: Average Transduction Efficiency below 2% gives Satisfied. Equal to or above 2% gives Not satisfied.

Observe how each entry below is paired with its result.
RRLTTGLSFYSKPYRRSRGPRHRTEKRKRIR [CPP56]    Not satisfied
RRRRKKRGRKGRDKEERRDRRRRRRR [CPP11]    Not satisfied

Now look at this one.
API: query returns whether the sequence falls strictly under 2% in Average Transduction Efficiency. Query: RRRRRRREKLAEATRGGGEKR [CPP35] Satisfied
